# TESTED_SYSTEM: T1, human MSLN-FL-his protein (human, UniProt Q13421 296-580)
# T1 construct: Made in HEK293E cells, purified on nickel column; it is put last here; also called human MSLN full-length protein; hMSLN-FL-his; not shown: His tag
# T1 sequence (Q13421 other isoform, or with tags, fused parts or gaps): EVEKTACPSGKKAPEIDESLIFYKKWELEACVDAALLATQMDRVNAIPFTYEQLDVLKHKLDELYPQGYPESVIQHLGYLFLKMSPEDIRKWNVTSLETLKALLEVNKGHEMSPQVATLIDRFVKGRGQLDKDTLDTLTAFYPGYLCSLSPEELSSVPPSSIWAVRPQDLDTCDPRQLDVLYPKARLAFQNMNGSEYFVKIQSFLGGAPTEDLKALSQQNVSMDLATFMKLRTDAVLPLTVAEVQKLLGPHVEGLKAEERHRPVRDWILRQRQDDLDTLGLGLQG
# MEASUREMENT_PROTOCOL: ELISA on coated antigen, antibody 0.01 nM
MEASURED_ENDPOINT: OD450 (OD)
Respond with the bare value in OD.

Below, 2 binders whose answers are already recorded.
BINDER	OBSERVED_MEASUREMENT
S009-F8-28.23 (antibody, human IgG1, kappa, V domains shown, Human-murine chimeric antibody, human IgG1 heavy and kappa light constant regions) VH: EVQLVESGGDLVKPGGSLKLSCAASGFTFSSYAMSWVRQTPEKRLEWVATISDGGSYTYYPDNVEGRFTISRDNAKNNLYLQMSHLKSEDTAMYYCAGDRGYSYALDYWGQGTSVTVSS VL: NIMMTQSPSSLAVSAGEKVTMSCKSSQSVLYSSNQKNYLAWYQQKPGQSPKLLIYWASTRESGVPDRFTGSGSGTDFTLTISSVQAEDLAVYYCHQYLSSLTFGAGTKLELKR	0.24
S009-F8-31.22 (antibody, human IgG1, kappa, V domains shown, Human-murine chimeric antibody, human IgG1 heavy and kappa light constant regions) VH: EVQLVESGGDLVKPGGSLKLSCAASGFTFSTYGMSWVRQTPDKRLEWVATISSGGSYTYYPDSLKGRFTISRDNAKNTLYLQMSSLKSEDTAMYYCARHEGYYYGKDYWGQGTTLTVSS VL: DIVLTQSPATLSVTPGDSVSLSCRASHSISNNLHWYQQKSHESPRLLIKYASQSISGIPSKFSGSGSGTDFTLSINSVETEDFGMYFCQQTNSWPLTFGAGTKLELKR	0.85

Data request: Give the measured OD450 of S009-F8-7.5 (antibody, human IgG1, kappa, V domains shown, Human-murine chimeric antibody, human IgG1 heavy and kappa light constant regions) VH: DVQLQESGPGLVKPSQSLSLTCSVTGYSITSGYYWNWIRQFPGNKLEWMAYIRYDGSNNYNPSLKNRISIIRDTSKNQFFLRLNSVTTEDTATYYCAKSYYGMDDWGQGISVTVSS VL: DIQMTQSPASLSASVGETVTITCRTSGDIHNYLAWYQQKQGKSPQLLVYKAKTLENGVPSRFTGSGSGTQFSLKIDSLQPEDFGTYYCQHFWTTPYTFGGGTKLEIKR .
Data returned: 0.49
